# System: Escherichia coli
# TEST_DESCRIPTION: Antimicrobial activity against Escherichia coli after 24 hrs […]
# Assay type: functional
METRIC: MIC (mg/L)

Before answering, review these 5 worked examples.
| COMPOUND | NUMERIC_VALUE |
| --- | --- |
| Clc1ccc(-c2cnc(-c3cnc4nc(-c5ccc(Br)cc5)c(Nc5ccccc5)n4c3)[nH]2)cc1 | 3.11 |
| Clc1ccc(-c2nnc(-c3cnc4nc(-c5ccc(Br)cc5)c(Nc5ccccc5)n4c3)o2)cc1 | 2.34 |
| CN[C@H](CC(C)C)C(=O)N[C@H]1C(=O)N[C@@H](CC(N)=O)C(=O)N[C@H]2C(=O)N[C@H]3C(=O)N[C@H](C(=O)N[C@H](C(=O)O)c4cc(O)cc(O)c4-c4cc3ccc4O)[C@H](O)c3ccc(c(Cl)c3)Oc3cc2cc(c3O[C@@H]2O[C@H](CO)[C@@H](O)[C@H](O)[C@H]2O[C@H]2C[C@](C)(N)[C@H](O)[C@H](C)O2)Oc2ccc(cc2Cl)[C@H]1O [VANCOMYCIN] | 6.65 |
| Fc1ccc2nc(-c3cnc4nc(-c5ccc(Oc6ccccc6)cc5)c(Nc5ccccc5)n4c3)[nH]c2c1 | 10.5 |
| Cc1ccc(-c2nnc(-c3ccc4nc(-c5ccc(Br)cc5)c(Nc5ccccc5)n4c3)o2)cc1 | 12.4 |

(1) Cc1ccc(-c2nc3ccc(-c4nc5ccc(Br)cc5[nH]4)cn3c2Nc2ccccc2)cc1
(2) Fc1ccc(-c2cnc(-c3ccc4nc(-c5ccc(Br)cc5)c(Nc5ccccc5)n4c3)[nH]2)cc1
# query: argmin of MIC over 1 and 2 Answer format: the label of the selected item.
2

* * *

# System: Escherichia coli
# TEST_DESCRIPTION: Antimicrobial activity against Escherichia coli after 24 hrs […]
# Type: functional
METRIC: MIC (µg/mL)

Worked examples follow.
| CHEM_SMILES | UNIT_DESCRIPTOR | MIC |
| --- | --- | --- |
| Fc1ccc2nc(-c3ccc4nc(-c5ccc(Oc6ccccc6)cc5)c(Nc5ccccc5)n4c3)[nH]c2c1 | µg/mL | 10.7 |
| Cc1ccc(-c2nc3ncc(-c4nc5ccc(F)cc5[nH]4)cn3c2Nc2ccccc2)cc1 | µg/mL | 3.44 |
| O=[N+]([O-])c1ccc2nc(-c3ccc4nc(-c5ccc(Br)cc5)c(Nc5ccccc5)n4c3)[nH]c2c1 | µg/mL | 11.3 |
| Cc1ccc(-c2nnc(-c3cnc4nc(-c5ccc(Br)cc5)c(Nc5ccccc5)n4c3)o2)cc1 | µg/mL | 8.56 |
| Cc1ccc(-c2nc3ccc(-c4nnc(-c5ccc([N+](=O)[O-])cc5)o4)cn3c2Nc2ccccc2)cc1 | µg/mL | 13.4 |

(P) Clc1ccc(-c2cnc(-c3ccc4nc(-c5ccc(Br)cc5)c(Nc5ccccc5)n4c3)[nH]2)cc1
(Q) O=[N+]([O-])c1ccc2nc(-c3cnc4nc(-c5ccc(Br)cc5)c(Nc5ccccc5)n4c3)[nH]c2c1
(R) Clc1ccc2nc(-c3cnc4nc(-c5ccc(Br)cc5)c(Nc5ccccc5)n4c3)[nH]c2c1
Thanks in advance: please rank these 3 entries by MIC, highest to lowest. The labels, placed in the requested order, form the answer.
Q, R, P

* * *

# Tested on: Escherichia coli
# TEST_DESCRIPTION: Antimicrobial activity against Escherichia coli after 24 hrs […]
# Assay type: functional
METRIC: MIC (µg/mL)

// known answers, use as guide
| CHEM_SMILES | UNIT_DESCRIPTOR | NUMERIC_VALUE |
| --- | --- | --- |
| Cc1ccc(-c2nc3ccc(-c4nc5ccc(Oc6ccccc6)cc5[nH]4)cn3c2Nc2ccccc2)cc1 | µg/mL | 34.8 |
| C=CC1=C(C(=O)O)N2C(=O)[C@@H](NC(=O)/C(=N\OCC(=O)O)c3csc(N)n3)[C@H]2SC1 | µg/mL | 2.34 |
| Fc1ccc(-c2nnc(-c3cnc4nc(-c5ccc(Br)cc5)c(Nc5ccccc5)n4c3)o2)cc1 | µg/mL | 1.33 |
| Fc1ccc(-c2nnc(-c3ccc4nc(-c5ccc(Oc6ccccc6)cc5)c(Nc5ccccc5)n4c3)o2)cc1 | µg/mL | 11.7 |

(1) Fc1ccc2nc(-c3ccc4nc(-c5ccc(Br)cc5)c(Nc5ccccc5)n4c3)[nH]c2c1
(2) Brc1ccc(-c2nc3ccc(-c4nc5ccc(Oc6ccccc6)cc5[nH]4)cn3c2Nc2ccccc2)cc1
// max by MIC over [ 1 , 2 ] Record your answer as the label of the chosen record.
2
